Measured values drawn from patent US20220125051A1 for this set.

System: Digitaria sanguinalis (DIGSA)
MEASUREMENT_NOTES: Post-emergence efficacy, Method A
Format: in vivo
EXPERIMENTAL_SETUP: Digitaria sanguinalis, post-emergence, 312 h; Application Rate 500 g/Ha; evaluated after 13 days; Method A; read-out: Control of weed species after post-emergence application, DIGSA (100=total damage to plant; 0=no damage to plant)
Assign True to entries whose pest or weed control at 500 g/ha meets or exceeds 50%; assign False to the rest.

MOLECULE	LABEL_VALUE
Cc1cc(-c2ncccn2)cn[n+]1CCS(=O)(=O)[O-]	True
O=S(=O)([O-])N1CCCC1C[n+]1ccc(-c2ncccn2)cn1 (stereo not drawn)	True
O=C(O)CC[n+]1ccc(-c2ncc(C(F)(F)F)cc2Cl)cn1	False
O=P([O-])(O)C[n+]1ccc(-c2ncccn2)cn1	True
CO[N-]C(=O)CC[n+]1ccc(-c2ncccn2)cn1	True
O=C(O)CC[n+]1ccc(-c2ncc(Cl)c(=O)[nH]2)cn1 [Compound A161, 2,2,2-trifluoroacetate]	False
O=P(O)(O)CCC[n+]1ccc(-c2ncccn2)cn1	True

---

System: Lolium perenne (LOLPE)
MEASUREMENT_NOTES: Post-emergence efficacy, Method A
Format: in vivo
EXPERIMENTAL_SETUP: Lolium perenne, post-emergence, 312 h, Application Rate 500 g/Ha; evaluated after 13 days; Method A; read-out: Control of weed species after post-emergence application, LOLPE (100=total damage to plant; 0=no damage to plant)
Catalogue of pest or weed control at 500 g/ha values

MOLECULE	SYSTEM	UNIT	pest or weed control at 500 g/ha
CC(C[n+]1ccc(-c2ccncn2)cn1)C(=O)O (stereo not shown) [Compound A171]	Lolium perenne (LOLPE)	%	70
NC(=O)c1cnc(-c2cc[n+](CCC(=O)O)nc2)cn1 [Compound A202, 2,2,2-trifluoroacetate]	Lolium perenne (LOLPE)	%	70
COC(=O)c1ccc(C[n+]2ccc(-c3ncccn3)cn2)cc1 [Compound A229]	Lolium perenne (LOLPE)	%	0
O=S(=O)([O-])N1CCCC1C[n+]1ccc(-c2ncccn2)cn1 (stereo not shown) [Compound A222]	Lolium perenne (LOLPE)	%	20
Cc1cc(Cl)cnc1-c1cc[n+](CCC(=O)O)nc1 [Compound A156]	Lolium perenne (LOLPE)	%	0
Cc1ccc(-c2cc[n+](CCC(=O)O)nc2)nc1 [Compound A199]	Lolium perenne (LOLPE)	%	0
CC(CC[n+]1ccc(-c2ncccn2)cn1)S(=O)(=O)[O-] (stereo not shown) [Compound A185]	Lolium perenne (LOLPE)	%	30
NC(=O)c1ccc(-c2cc[n+](CCCS(=O)(=O)[O-])nc2)nc1 [Compound A183]	Lolium perenne (LOLPE)	%	10
O=S(=O)([O-])CCC[n+]1ccc(-c2ccc(-c3ccc(Cl)nn3)nn2)cn1 [Compound A168]	Lolium perenne (LOLPE)	%	10
Cc1cc(F)cnc1-c1cc[n+](CCCS(=O)(=O)[O-])nc1 [Compound A196]	Lolium perenne (LOLPE)	%	0
CC(C(=O)OC(C)(C)C)[n+]1ccc(-c2ncccn2)cn1 (stereo not shown) [Compound A193]	Lolium perenne (LOLPE)	%	10
Nc1cc(-c2cc[n+](CCC(=O)O)nc2)ncn1 [Compound A163]	Lolium perenne (LOLPE)	%	70
N#Cc1cnc(-c2cc[n+](CCS(=O)(=O)[O-])nc2)cn1 [Compound A191]	Lolium perenne (LOLPE)	%	30
CN(C)S(=O)(=O)[N-]C(=O)C[n+]1ccc(-c2ncccn2)cn1 [Compound A214]	Lolium perenne (LOLPE)	%	80
O=S(=O)([O-])CC[n+]1ccc(-c2ccc(C(F)(F)F)cn2)cn1 [Compound A174]	Lolium perenne (LOLPE)	%	60
O=P(O)(O)CC[n+]1ccc(-c2ncccn2)cn1 [Compound A198]	Lolium perenne (LOLPE)	%	50
O=C(O)C(O)C[n+]1ccc(-c2ccncn2)cn1 (stereo not shown) [Compound A190]	Lolium perenne (LOLPE)	%	40
N#Cc1ccnc(-c2cc[n+](CCO)nc2)n1 [Compound A186]	Lolium perenne (LOLPE)	%	10
O=C([O-])CCC[n+]1ccc(-c2ncccn2)cn1 [Compound A220]	Lolium perenne (LOLPE)	%	60

---

Tested on: Lolium perenne (LOLPE)
MEASUREMENT_NOTES: Post-emergence efficacy, Method A
Assay type: in vivo
EXPERIMENTAL_SETUP: Lolium perenne, post-emergence, 312 h, Application rate 500 g/Ha; evaluated after 13 days; 100=total damage to plant, 0=no damage to plant; read-out: Control of weed species after post-emergence application, LOLPE
Catalogue of pest or weed control at 500 g/ha values
OUTCOME_MEASURE: pest or weed control at 500 g/ha (%)

CPD_SMILES	READING
O=S(=O)([O-])CC[n+]1ccc(-c2cc(C(F)(F)F)ncn2)cn1	30
Cc1cnc(-c2cc[n+](CCS(=O)(=O)[O-])nc2)c(F)c1	60
Cc1n[n+](CCC(=O)O)ccc1-c1ccccn1	0
CCOC(=O)CC[n+]1ccc(-c2ccccn2)cn1	20
COc1nccc(-c2cc[n+](CCS(=O)(=O)[O-])nc2)n1	70
COc1cc(C)nc(-c2cc[n+](CCC(=O)[O-])nc2)n1	50
COc1cc(OC)nc(-c2cc[n+](CCS(=O)(=O)[O-])nc2)n1	30
O=C([O-])CC[n+]1ccc(-c2ccc(F)cn2)cn1	10
Cc1nc(-c2cc[n+](CCC(=O)[O-])nc2)ncc1Cl	10

---

Tested on: Echinochloa crus-galli (ECHCG)
MEASUREMENT_NOTES: Post-emergence efficacy, Method A
Type: in vivo
EXPERIMENTAL_SETUP: Echinochloa crus-galli, post-emergence, 312 h; Application Rate 500 g/Ha; evaluated after 13 days; Method A; read-out: Control of weed species after post-emergence application, ECHCG (100=total damage to plant; 0=no damage to plant)
Catalogue of pest or weed control at 500 g/ha values

COMPOUND	SYSTEM	pest or weed control at 500 g/ha / %
NC(=O)c1cnc(-c2cc[n+](CCC(=O)O)nc2)cn1 [Compound A202, 2,2,2-trifluoroacetate]	Echinochloa crus-galli (ECHCG)	80
CC(CNS(=O)(=O)[O-])[n+]1ccc(-c2ncccn2)cn1 (stereo not drawn)	Echinochloa crus-galli (ECHCG)	70
N[C@@H](C[n+]1ccc(-c2ncccn2)cn1)C(=O)O [Compound A208, 2,2,2-trifluoroacetate]	Echinochloa crus-galli (ECHCG)	30
CN(C)S(=O)(=O)[N-]C(=O)C[n+]1ccc(-c2ncccn2)cn1	Echinochloa crus-galli (ECHCG)	100
CC(C[n+]1ccc(-c2ccncn2)cn1)C(=O)O (stereo not drawn)	Echinochloa crus-galli (ECHCG)	60
O=C(O)CC[n+]1ccc(-c2ccnc(C(F)(F)F)c2)cn1	Echinochloa crus-galli (ECHCG)	50
Nc1cc(-c2cc[n+](CCC(=O)O)nc2)ncn1	Echinochloa crus-galli (ECHCG)	40
Nc1cc(-c2cc[n+](CCS(=O)(=O)[O-])nc2)ncn1	Echinochloa crus-galli (ECHCG)	30
OCCC[n+]1ccc(-c2ncccn2)cn1	Echinochloa crus-galli (ECHCG)	20

---

Test system: Echinochloa crus-galli (ECHCG)
MEASUREMENT_NOTES: Post-emergence efficacy, Method A
Format: in vivo
EXPERIMENTAL_SETUP: Application rate 500 g/Ha; evaluated after 13 days; 100=total damage to plant, 0=no damage to plant
Catalogue of Control of weed species after post-emergence application, ECHCG values
OUTCOME_MEASURE: Control of weed species after post-emergence application, ECHCG

CPD_SMILES	READING
O=C(O)CC[n+]1ccc(-c2ncccn2)cn1.[Cl-]	100
Cc1n[n+](CCC(=O)O)ccc1-c1ncccn1.[Cl-]	70
N#Cc1cnc(-c2cc[n+](CCS(=O)(=O)O)nc2)nc1	70
COc1cc(C)nc(-c2cc[n+](CCS(=O)(=O)O)nc2)n1	30
O=C(O)c1ccnc(-c2cc[n+](CCCS(=O)(=O)[O-])nc2)n1	90

---

System: Glycine Max (GLXMA)
MEASUREMENT_NOTES: Pre-harvest desiccation of crop plants
Type: in vivo
EXPERIMENTAL_SETUP: Table E; 150 g/Ha; evaluated after 7 and 14 days (which not stated); 100=total damage to plant, 0=no damage
Method: Seeds of a variety of test species were sown in standard loam based soil in pots. […] The test plants were then grown in a glasshouse under controlled conditions (at 24/16° C., day/night; 14 hours light; 65% humidity) for warm climate species and (at 20/16° C. day/night; 15 hours light; 65% humidity) for cool climate species and watered twice daily. After 7 and 14 days the test was evaluated (100=total damage to plant; 0=no damage to plant). […]
OUTCOME_MEASURE: Post-emergence dessication efficacy, GLXMA

COMPOUND	READING
O=S(=O)([O-])CC[n+]1ccc(-c2ncccn2)cn1 [Compound A1]	68
O=S(=O)([O-])CC[n+]1ccc(-c2cccnn2)cn1 [Compound A5]	83
O=C(O)CC[n+]1ccc(-c2ncccn2)cn1.[Cl-] [Compound A26]	96
O=C(O)CC[n+]1ccc(-c2ccncn2)cn1.[Cl-] [Compound A28]	93
